Molecular target: Genome polyprotein (dengue virus type 2, UniProt P29990)
Sequence (P29990 2492-3391 limits assumed): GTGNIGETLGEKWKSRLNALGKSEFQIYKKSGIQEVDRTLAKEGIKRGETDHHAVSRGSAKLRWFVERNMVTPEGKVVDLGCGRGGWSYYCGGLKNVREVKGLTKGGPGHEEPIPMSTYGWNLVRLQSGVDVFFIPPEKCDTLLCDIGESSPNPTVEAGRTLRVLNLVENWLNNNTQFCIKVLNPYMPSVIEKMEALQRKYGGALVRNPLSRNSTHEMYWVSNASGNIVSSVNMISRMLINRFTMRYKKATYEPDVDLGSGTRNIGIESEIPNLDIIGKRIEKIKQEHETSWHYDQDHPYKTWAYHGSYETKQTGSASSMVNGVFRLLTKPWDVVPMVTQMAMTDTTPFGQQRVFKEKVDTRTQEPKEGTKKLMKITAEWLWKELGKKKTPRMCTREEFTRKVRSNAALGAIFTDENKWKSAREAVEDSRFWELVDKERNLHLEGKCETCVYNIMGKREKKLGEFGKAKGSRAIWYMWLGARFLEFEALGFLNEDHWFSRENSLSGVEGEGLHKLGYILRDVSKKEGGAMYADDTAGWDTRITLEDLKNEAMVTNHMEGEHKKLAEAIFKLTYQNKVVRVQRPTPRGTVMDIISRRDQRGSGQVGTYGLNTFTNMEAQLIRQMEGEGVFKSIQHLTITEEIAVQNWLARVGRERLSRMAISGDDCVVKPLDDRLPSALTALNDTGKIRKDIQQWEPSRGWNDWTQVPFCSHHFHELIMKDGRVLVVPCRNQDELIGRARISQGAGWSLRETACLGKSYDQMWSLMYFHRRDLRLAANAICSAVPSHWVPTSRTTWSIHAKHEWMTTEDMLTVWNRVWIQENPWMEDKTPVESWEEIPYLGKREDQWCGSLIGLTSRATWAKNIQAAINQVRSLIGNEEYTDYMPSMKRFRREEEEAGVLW
Assay: flavivirus cap methylation enzyme inhibition – biochemical, confirmation dose response, primary screen (AID 588689)
Type: functional
Calls of active or inactive are those of the source. No rule for the calls is given here.
Here the recorded IC50 is given for each entry.

# example entries with known answers
compound: O=C(CCN1C(=O)/C(=C\c2ccccc2F)SC1=S)Nc1ccc(C(=O)O)c(O)c1
IC50: 32.5 µM (active)
//
compound: O=[N+]([O-])c1cc(Cl)cc(/C=N/NC(=S)Nc2ccc(S(=O)(=O)N3CCOCC3)cc2)c1O
IC50: > 100 µM (active)
//
compound: Cc1cc(C)cc(NC(=S)N(Cc2ccc(Cl)cc2)Cc2ccc(C(=O)O)cc2)c1
IC50: 92.1 µM (active)
//
compound: O=C(O)CCn1cc(C=C2C(=O)NC(=S)NC2=O)c(-c2cccc(Cl)c2)n1
IC50: 10.9 µM (active)
//
compound: CCc1ccc(/C=C/C(=O)C2C(=O)c3ccccc3C2=O)cc1
IC50: 62.8 µM (active)

Which IC50 value belongs to Cc1cc(O)c(C(C)C)cc1N=Cc1ccccc1[N+](=O)[O-] ?
> 100 µM (active)

Which IC50 value belongs to N#CC(=C1C=C(Br)C(=NO)C=C1Cl)c1ccc(Cl)cc1 ?
62.4 µM (active)

Which IC50 value belongs to O=C1C=C(Nc2cccc3cccnc23)c2ccccc2C1=O ?
50.4 µM (active)

Which IC50 value belongs to COc1cc(CNc2ccc(N3CCCC3)cc2)ccc1OCc1ccccc1F ?
54.2 µM (active)

Which IC50 value belongs to O=C(O)c1ccccc1NS(=O)(=O)c1cccc(-n2sc3ccccc3c2=O)c1 ?
46.4 µM (active)

Which IC50 value belongs to Cc1ccc(C(=O)C2=C(O)C(=O)OC2c2ccc(Cl)cc2)cc1 (configuration not stated) ?
60.8 µM (active)

Which IC50 value belongs to CCc1sc(/C=C(/C#N)C(N)=S)cc1[N+](=O)[O-] ?
33.9 µM (active)
